Test system: CXXC5-DVL interaction
Experiment: In vitro CXXC5-DVL PPI inhibition (binding) assay, library screening
Conditions: compound 30 μM; FITC-tagged PTD-DBMP and DVL-PDZ domain; fluorescence intensity
OUTCOME MEASURE: CXXC5-DVL inhibitory activity (%)
Quick note: give the figure in %, leave out the unit.

Recorded results for 2 compounds are shown here.
>  <COMPOUND>
CCN(CC)S(=O)(=O)c1ccc(OC)c(Nc2cc(-c3ccccc3)nc(C)n2)c1 [Compound 6]

>  <OUTCOME MEASURE>
CXXC5-DVL inhibitory activity (%)

>  <U>
%

>  <RECORDED MEASUREMENT>
58.24

$$$$
>  <COMPOUND>
Br.CN1CCc2cc(O)cc3c2[C@H]1Cc1ccc(O)c(O)c1-3 [Compound 9]

>  <OUTCOME MEASURE>
CXXC5-DVL inhibitory activity (%)

>  <U>
%

>  <RECORDED MEASUREMENT>
89.41

$$$$

Look at this compound and give its reported CXXC5-DVL inhibitory activity (%). COc1ccc(C2CC(C(F)(F)F)n3ncc(C(=O)O)c3N2)cc1OC (stereo not shown) [Compound 2]
90.63

What measured CXXC5-DVL inhibitory activity (%) goes with COc1ccc(C2CC(=O)C3=C(C2)Nc2onc(C)c2C3c2ccc(O)c(O)c2)cc1OC (stereo not shown) [Compound 7] ?
90.87

* * *

Items are presented alongside their recorded CXXC5-DVL inhibitory activity (%).
Test system: CXXC5-DVL interaction
Experiment: In vitro CXXC5-DVL PPI inhibition (binding) assay, library screening
Conditions: compound 30 μM; FITC-tagged PTD-DBMP and DVL-PDZ domain; fluorescence intensity
Experimental: Screening for compounds that inhibit the CXXC5-DVL interaction. […] CELL. DEATH. DIFFER. […] Briefly, 5 mg/ml purified DVL-PDZ domain was incubated in each well of a 96-well Maxibinding Immunoplate (SPL, Seoul, Korea) at 4° C. for 16 h. […] The fluorescence intensity was measured using a Fluorstar Optima microplate reader (BGM Lab Technologie, Ortenberg, Germany) and normalized as follows: “(‘compounds-treated group’−‘blank’)/(‘DMSO-treated control’−‘blank’)*100”.
# number only, unit % dropped from output

Examples with their reported CXXC5-DVL inhibitory activity (%) follow.
>  <COMPOUND>
COC(=O)C1=C(C)N/C(=C/c2cc(C)n(-c3ccccc3F)c2C)C1=O [Compound 4]

>  <RECORDED MEASUREMENT>
87.58

$$$$
>  <COMPOUND>
O=c1cc(O)cc(/C=C/c2ccc(O)c(O)c2)o1 [Compound 11]

>  <RECORDED MEASUREMENT>
90.05

$$$$
>  <COMPOUND>
O=C(O)C1Sc2[nH]c(=O)sc2C2c3cc(Br)cc(Br)c3OC(=O)C12 (stereo not shown) [Compound 5]

>  <RECORDED MEASUREMENT>
90.48

$$$$

Now consider a different compound.
Any idea what its CXXC5-DVL inhibitory activity (%) is? The compound is NC(Cc1cc(O)c(O)cc1O)C(=O)O (stereo not shown) [Compound 10]
90.32

* * *

Test system: CXXC5-DVL interaction
Assay: In vitro CXXC5-DVL PPI inhibition (binding) assay, library screening
Settings: compound 30 μM; FITC-tagged PTD-DBMP and DVL-PDZ domain; fluorescence intensity
OUTCOME MEASURE: CXXC5-DVL inhibitory activity (%)
Supply the numeric figure in %, leaving out any unit text.

Example entries begin here.
>  <COMPOUND>
CC(N)(Cc1ccc(O)c(O)c1)C(=O)O (centres unmarked)

>  <RECORDED MEASUREMENT>
85.22

$$$$
>  <COMPOUND>
Cl.O=C(OCCN1CCOCC1)C1(c2ccccc2)CCCCC1

>  <RECORDED MEASUREMENT>
86.81

$$$$
>  <COMPOUND>
O=C1Nc2ccccc2/C1=C1/Nc2ccccc2/C1=N\O [Compound 12, Indirubin-3′-oxime, reference compound]

>  <RECORDED MEASUREMENT>
89

$$$$
>  <COMPOUND>
O=c1c(O)c(-c2ccc(O)cc2O)oc2cc(O)cc(O)c12

>  <RECORDED MEASUREMENT>
85.41

$$$$
>  <COMPOUND>
CN(C)c1ccc(O)c2c1C[C@H]1C[C@H]3[C@H](N(C)C)C(O)=C(C(N)=O)C(=O)[C@@]3(O)C(O)=C1C2=O.Cl

>  <RECORDED MEASUREMENT>
87.9

$$$$

Quick check: CXXC5-DVL inhibitory activity (%) of O=c1c(O)c(-c2cc(O)c(O)c(O)c2)oc2cc(O)cc(O)c12 ?
85.22

I am curious: what CXXC5-DVL inhibitory activity (%) value has been reported for Cc1cc(C)c2c(O)nc(SCC(=O)c3ccc(O)c(O)c3)nc2n1 ?
88.19

// CXXC5-DVL inhibitory activity (%) lookup, key: Oc1cc(O)cc(/C=C/c2ccc(O)c(O)c2)c1
85.25

Just for reference, patent US12303490B2 is where these values come from.
